Observed pIC50 for human cathepsin S (Homo sapiens (Human), UniProt P25774), reported per entry below.
Where a name gives a salt, the structure may show the parent alone.
Give bare numbers, as −log10 of the molar value.

Completed entries (count: 4):
CCOc1ccc(-c2nc(C#N)nc3c2ccn3CC(=O)N2CCN(C)CC2)cc1C(F)(F)F [Example 5] : 8.38
CCN1CCC(CCOc2ccc(-c3nc(C#N)nc4c3ccn4CCOC)cc2C(F)(F)F)CC1 [Example 13, monohydrochloride] : 8.57
CN1CCC(NC(=O)Cn2ccc3c(-c4ccc(OCCC5CCOCC5)c(C(F)(F)F)c4)nc(C#N)nc32)CC1 [Example 47] : 8.68
Cn1ccc2c(-c3cnc(OCC4CCN(C(=O)[C@@H]5CCCN5)CC4)c(C(F)(F)F)c3)nc(C#N)nc21 [Example 154] : 8.62

Working through the 7 compounds below one at a time, give pIC50 for each.
1. CC(C)CN1CCC(CCOc2ncc(-c3nc(C#N)nc4c3ncn4C)cc2C(F)(F)F)CC1 [Example 144]
2. CN1CCC[C@H]1C(=O)N1CC[C@@H](OCCOc2ncc(-c3nc(C#N)nc4c3ccn4C)cc2C(F)(F)F)C1 [Example 157]
3. CC(C)N1CCC[C@H]1C(=O)N1CCC(COc2ncc(-c3nc(C#N)nc4c3ccn4C)cc2C(F)(F)F)CC1 [Example 156]
4. CN1CCC[C@H]1C(=O)N1CCC(CCOc2ccc(-c3nc(C#N)nc4c3ccn4CC3CCCO3)cc2C(F)(F)F)CC1 (stereo partly shown) [Example 15, monohydrochloride]
5. CN1CCC[C@H]1C(=O)N1CCC(OCCOc2ncc(-c3nc(C#N)nc4c3ccn4C)cc2C(F)(F)F)CC1 [Example 149]
6. CN1CCC[C@@H]1C(=O)N1CCC(CCOc2ccc(-c3nc(C#N)nc4c3ncn4C)cc2C(F)(F)F)CC1 [Example 6]
7. CN1CCN(C(=O)Cn2ccc3c(-c4ccc(OCCC5CCOCC5)c(C(F)(F)F)c4)nc(C#N)nc32)CC1 [Example 8, monohydrochloride]

Solution:
8.55
8.68
8.62
8.47
8.57
8.47
8.80

Working through the 8 compounds below one at a time, give pIC50 for each.
1. CCN1CCCC(CCOc2ncc(-c3nc(C#N)nc4c3ccn4C)cc2C(F)(F)F)C1 (stereo not shown) [Example 12, monohydrochloride]
2. CCN1CCC(CCOc2ccc(-c3nc(C#N)nc4c3nc(C)n4C)cc2C(F)(F)F)CC1 [Example 11]
3. CN1CCC[C@@H]1C(=O)N1CC[C@H](OCCOc2ncc(-c3nc(C#N)nc4c3ccn4C)cc2C(F)(F)F)C1 [Example 143, monofumarate]
4. Cn1ccc2c(-c3ccc(OCCC4C5CCC4CNC5)c(C(F)(F)F)c3)nc(C#N)nc21 (stereo not shown) [Example 38]
5. Cn1ccc2c(-c3cnc(OCCOC4CCNCC4)c(C(F)(F)F)c3)nc(C#N)nc21 [Example 147]
6. Cn1cnc2c(-c3cnc(OCCC4CCN(C(CF)CF)CC4)c(C(F)(F)F)c3)nc(C#N)nc21 [Example 145]
7. Cl.Cn1ccc2c(-c3ccc(OCCC4CCNCC4)c(C(F)(F)F)c3)nc(C#N)nc21 [Example 2, monohydrochloride]
8. Cn1ccc2c(-c3cnc(OCC4CCNCC4)c(C(F)(F)F)c3)nc(C#N)nc21 [Example 153]

Solution:
1: 8.57; 2: 8.72; 3: 8.82; 4: 8.35; 5: 8.62; 6: 9.00; 7: 8.64; 8: 8.80
